Target: Sterol 14-alpha demethylase (Trypanosoma cruzi (strain CL Brener), UniProt Q7Z1V1)
Sequence (Q7Z1V1 whole entry): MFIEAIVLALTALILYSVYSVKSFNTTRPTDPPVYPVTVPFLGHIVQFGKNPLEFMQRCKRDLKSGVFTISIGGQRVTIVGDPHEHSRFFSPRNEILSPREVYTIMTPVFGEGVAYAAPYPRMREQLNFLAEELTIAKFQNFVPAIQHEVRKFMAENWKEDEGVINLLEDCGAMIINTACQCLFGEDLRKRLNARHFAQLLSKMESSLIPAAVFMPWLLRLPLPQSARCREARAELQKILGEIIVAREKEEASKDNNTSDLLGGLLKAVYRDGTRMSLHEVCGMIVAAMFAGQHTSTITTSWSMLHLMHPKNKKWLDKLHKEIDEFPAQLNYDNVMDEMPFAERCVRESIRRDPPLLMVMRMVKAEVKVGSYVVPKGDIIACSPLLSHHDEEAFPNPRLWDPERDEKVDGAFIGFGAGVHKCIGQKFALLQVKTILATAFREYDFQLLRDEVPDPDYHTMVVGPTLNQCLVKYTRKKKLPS
Assay: GSK_TCAKS: pIC50 CYP51 from Trypanosoma cruzi.
outcome.measure: pIC50
Hey, just a heads up that pIC50 is the negative log base 10 of the concentration in molar.

Reported pIC50 for Cc1nn(-c2ccccc2)nc1CNC(=O)CN(Cc1ccccn1)Cc1ccccn1 was 4.60

Consider COc1ncc(-c2ccc3nccc(-c4ccncc4)c3c2)cc1NS(=O)(=O)C1CC1 . Its measured pIC50 is 5.10

The recorded pIC50 for CN(Cc1ccc(F)cc1)c1ccc(OCC(=O)N2CCCCC2c2cccnc2)nn1 (stereo not given) is 7.30

Per the record, Cc1nc(N2CC(C)OC(C)C2)sc1C(=O)Nc1ccc2c(c1)OCO2 (stereo not given) has pIC50 of 4.40

Reported pIC50 of Cn1ccnc1-c1nc(NCc2ccccc2Cl)cc(C2CC2)n1 : 4.40

###

Target: Sterol 14-alpha demethylase (Trypanosoma cruzi (strain CL Brener), UniProt Q7Z1V1)
Test: GSK_TCAKS: pIC50 CYP51 from Trypanosoma cruzi.
Type: functional
outcome.measure: pIC50
The meaning of pIC50 here: minus log10 of the concentration in molar units.

Recorded pIC50 (compound Clc1ccc(OCCN2CCCCC2c2cccnc2)c(Cl)c1 (stereo not given) ): 7.20

Form field pIC50, entry Cn1nccc1-c1cc(OC(CN)c2ccccc2)cnc1-c1ccco1 (stereo not given) : 7.20

# compound CC(=O)NCCNc1cc(-c2ccnc(Nc3cccc(Cl)c3)n2)ccn1 ; its pIC50 = 5.30

Per the records, this compound ( N#Cc1ccc(C(=O)Nc2cccc(-c3cccc(CN4CCC(O)CC4)c3)c2)cc1 ) has pIC50 equal to 4.60

###

System: Trypanosoma cruzi
Assay: GSK_TCAKS: pIC50 Trypanosoma cruzi Imaging: Infected Cells. […] Cells were then washed once with PBS before infection. T. cruzi trypomastigotes, collected at days 5 to 8 after infection from LLC-MK2 parasite infected cultures, were allowed to swim out for 4h at 37C from a centrifuged pellet (2,500 rpm/10 min/room temperature). Trypomastigotes were then collected and counted in a CASY Cell Counter. Trypomastigotes, in supplemented DMEM, were added to H9c2 cultures in a multiplicity of infection of 1 and incubated for 18 h. Cells were washed once with PBS before incubation of the infected H9c2 monolayer with trypsin (Life-Technologies) to detach cells from the flask. Cells were counted in a CASY Cell Counter using a 150 um capillary and their density set at 5 * 10^4 cells per mL in supplemented assay DMEM. Infected H9c2 were dispensed into 384-well poly-lysine coated assay plates at 50uL per well using a Multidrop Combi dispenser. After seeding them, the plates were incubated at 37C, 5% CO2 for 72h. Cultures were then fixed and stained by addition of 50 uL of a solution containing 8% formaldehyde and 4 uM DRAQ5 DNA dye (BioStatus, UK) per well. […] Five images were collected per well for reliable statistical analysis. Automated image analysis was performed with a script developed on Acapella High Content Imaging and Analysis Software (PerkinElmer). Output: percentage of infected cells per well as a second infection marker.
Type: functional, organism-based, Rattus norvegicus
Conditions: H9c2, 4 h
Mark T only for IC50 values smaller than 1000 nM; exact matches and larger values are F.

Problem: Criterion: IC50 strictly below 1000 nM. Is it met by CC(C)N(C(=O)CN1C(=O)C(N)C(=O)N(c2ccccc2)c2ccccc21)c1ccccc1 (stereo not given) ?
Solution: T

Problem: Threshold test, IC50 < 1000 nM: CC(C)c1nn(-c2nc(N)nc(-c3ccccn3)n2)c(N)c1C1CCCCC1
Solution: F

Problem: Is it true that IC50 reported for CCn1c(NC(=O)Cc2ccc(F)cc2)nc2ccccc21 is less than 1000 nM?
Solution: F

Problem: Is IC50 strictly under 1000 nM for the entry CS(=O)(=O)c1cccc(-c2cnc(N)c3c(-c4ccc(CO)cc4)csc23)c1 ?
Solution: T

Problem: is_below(IC50, 1000 nM) for NC(=O)c1cc(F)ccc1Nc1nc(N[C@H]2CC[C@H](O)CC2)ncc1Br ?
Solution: F

Problem: Take the compound O=C(NCCc1csc(-c2ccc(F)cc2)n1)c1ccco1 and say whether its IC50 is less than 1000 nM.
Solution: F

Problem: Find out if reported IC50 for COc1cccc(S(=O)(=O)Nc2ccc3c(c2)CC(N2CCC(NC(=O)C4CC4)CC2)C3)c1 (stereo not given) is less than 1000 nM
Solution: F

Problem: Threshold test, IC50 < 1000 nM: CC1=C(C(=O)Nc2ccc(Cl)cc2)C(c2ccncc2)n2ncc(C(=O)Nc3ccccc3)c2N1 (stereo not given)
Solution: T

Problem: # check: IC50 < 1000 nM for CC(C)C[C@H](NC(=O)c1csc(-c2cccs2)n1)C(=O)NC1(C#N)CC1
Solution: F

###

System: Trypanosoma brucei brucei
Assay: GSK_TCAKS: pIC50 Trypanosoma brucei viability assay using luminiscence. Assay plates (1536-well) were prepared. T. brucei cultures were harvested and counted in a CASY cell counter. A parasite suspension was prepared at a final concentration of 5 * 10^4 cells/mL in complete HMI9 medium and 6uL was dispensed to all wells containing compounds using a Multidrop Combi dispenser. 6uL of HMI9 media with 0.4% DMSO were dispensed to control columns. Plates were incubated for 24 h at 37C, 5% CO2 then tempered for 10 min at room temperature. ATP content was quantified by adding 4 uL of CellTiter-Glo Reagent (Promega) according to the manufacturer's instructions. Luminescence was measured using a ViewLux.
Format: functional, organism-based
Conditions: Lister 427, CASY
Give IC50 for every item shown.
Give the number; µM is assumed, so skip it.

// sample N#Cc1cccc(Cc2cc(Nc3cc(C4CC4)[nH]n3)nc(N3CC[C@H]3C(N)=O)n2)c1 , its IC50 was 0.0631

Item: CCN(CC)S(=O)(=O)c1ccc(C(=O)Nc2cc(C)nn2-c2nc(C)c(C)c(=O)[nH]2)cc1 | IC50: 0.316

IC50 recorded for this compound, CCNc1cc(-c2ccccn2)nc(Nc2ccccc2)n1 , is 12.6

Reported IC50 for N#Cc1cc([N+](=O)[O-])ccc1NC1CCCCCC1 was 3.16

Recorded IC50 (compound COc1ncc(-c2ccc3nccc(-c4ccncc4)c3c2)cc1NS(=O)(=O)C1CC1 ): 0.398

Record summary for CCC(=O)N1N=C(c2ccc3c(c2)CCCC3)Sc2c1ncn2C(=O)CC : reported IC50 = 20

Record CNc1nc(C)nc(N2CCc3cc(C(=O)NCc4ccc(-c5cc[nH]n5)cc4Cl)ccc32)n1 . Reported IC50: 10

The compound listed as COc1ccc(NS(=O)(=O)c2cc(-c3cc(C)n[nH]3)ccc2C)cc1OC shows IC50 equal to 0.631

For record CCc1cccc(CC)c1-n1c(SCC(=O)NC(=O)NCc2ccco2)nnc1-c1cccnc1 the listed IC50 is 0.794

###

Tested on: Leishmania donovani
Experiment: GSK_TCAKS: pIC50 Leishmania donovani Imaging: Amastigotes/Macrophages. Assay plates (384-well) were prepared by adding 250nL of compound to each well. For single shot assay, the final compound concentration was 5 uM. […] Automated image analysis was performed with a script developed on Acapella High Content Imaging and Analysis Software (PerkinElmer). Output: Average number of amastigotes per macrophage cell were reported for each well.
Type: functional, organism-based, Homo sapiens
Details: THP-1
outcome.measure: pIC50
# pIC50 = -log10(concentration in molar units)

// sample CCN(Cc1cccs1)C(=O)CSc1nnc(-c2ccc3c(c2)OCO3)o1 , its pIC50 was 5.70

What the record says about COc1ccc(C(C)N(C)c2ncc3c(N)nc(N)nc3n2)cc1F (stereo not given) : pIC50 is 4.90

Input COc1cccc(Nc2cc(C)nc(-c3ccccn3)n2)c1 . Output pIC50: 5.90

Cc1nc(C(=O)Nc2ccc3c(c2)OCO3)nn1-c1ccc(Cl)cc1 has a reported pIC50 of 5.80

For this compound ( Cc1c(C(C)NC(=O)Nc2cccc(Cl)c2)sc2ncnn12 (stereo not given) ), measured pIC50 is 5.70

Reported pIC50 for CCc1cc(C(=O)Nc2nccn2-c2ccccc2)cs1 was 5.30

The value of pIC50 measured for the compound COCc1cc(Nc2cccc(Cl)c2)nc(-c2ccccn2)n1 turned out to be 6.20

Just so you know, measured pIC50 for CC(C)CC(=O)NC(c1cccs1)c1ccc2cccnc2c1O (stereo not given) came out at 5.50

###

Tested on: Trypanosoma cruzi
Test: GSK_TCAKS: pIC50 Trypanosoma cruzi Imaging: Amastigotes/Cell. […] Cells were then washed once with PBS before infection. T. cruzi trypomastigotes, collected at days 5 to 8 after infection from LLC-MK2 parasite infected cultures, were allowed to swim out for 4h at 37C from a centrifuged pellet (2,500 rpm/10 min/room temperature). Trypomastigotes were then collected and counted in a CASY Cell Counter. Trypomastigotes, in supplemented DMEM, were added to H9c2 cultures in a multiplicity of infection of 1 and incubated for 18 h. Cells were washed once with PBS before incubation of the infected H9c2 monolayer with trypsin (Life-Technologies) to detach cells from the flask. Cells were counted in a CASY Cell Counter using a 150 um capillary and their density set at 5 * 10^4 cells per mL in supplemented assay DMEM. Infected H9c2 were dispensed into 384-well poly-lysine coated assay plates at 50uL per well using a Multidrop Combi dispenser. After seeding them, the plates were incubated at 37C, 5% CO2 for 72h. Cultures were then fixed and stained by addition of 50 uL of a solution containing 8% formaldehyde and 4 uM DRAQ5 DNA dye (BioStatus, UK) per well. […] Five images were collected per well for reliable statistical analysis. Automated image analysis was performed with a script developed on Acapella High Content Imaging and Analysis Software (PerkinElmer). Output: number of amastigotes per cell as infection level measurement.
Assay type: functional, organism-based, Rattus norvegicus
Details: H9c2, 4 h
Would you mind telling me the reported IC50 of each entry?
Express the result in µM but write the number alone.

Given the molecule OC[C@@H](Nc1nccc(-c2c(-c3ccc(F)cc3)ncn2C2CCNCC2)n1)c1ccccc1 and test system Trypanosoma cruzi, the measured IC50 is 12.6

Entry Cc1ccc(C)c(-n2nnnc2Sc2nc([N+](=O)[O-])nn2C)c1 ; assay system Trypanosoma cruzi; IC50 recorded at 0.251

The reported Trypanosoma cruzi IC50 of C=CCOCC1Cn2nc([N+](=O)[O-])nc2O1 (stereo not drawn) is 0.631
